Molecular target: T1, cynomolgus (Macaca fascicularis) ST2L extracellular domain with C-terminal His6 tag (Macaca fascicularis (cynomolgus), UniProt Q01638 19-321 (human entry))
T1 construct: also called cyno ST2L-ECD; cynoST2L-ECD
T1 chain: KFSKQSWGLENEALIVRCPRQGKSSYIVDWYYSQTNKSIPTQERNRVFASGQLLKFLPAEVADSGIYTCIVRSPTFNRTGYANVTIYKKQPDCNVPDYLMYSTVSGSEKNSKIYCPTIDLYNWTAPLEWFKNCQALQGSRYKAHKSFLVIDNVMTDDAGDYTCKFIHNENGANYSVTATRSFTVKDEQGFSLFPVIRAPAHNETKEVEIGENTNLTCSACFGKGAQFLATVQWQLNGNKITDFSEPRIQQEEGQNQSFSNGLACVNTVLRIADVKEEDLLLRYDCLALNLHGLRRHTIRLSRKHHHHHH
Assay: SPR, mAb captured, ST2L-ECD in solution
pKd values for the binders below.
Quick note: pKd values are minus log10 of concentrations in mol/L.

Here are 2 binders together with their reported answers.
BINDER	NUMERIC VALUE
C2519 (antibody, V domains shown, Mouse hybridoma antibody; also called C2519A) VH: EFQLQQSGPELVKPGASVKISCKASGYSFTDYNMNWVKQSHGKSLEWIGNINPYYGSTTYNQKFKGKATLTVDKSSNTAYMHLNSLTSEDSAVYYCAREGDTYLAWFAYWGQGTLVTVSA VL: DVLMTQTPLSLPVSLGDQASISCRSSQSIVYSNGNTYLEWYLQKPGQSPKLLIYKVSNRFSGVPDRFSGSGSGTDFTLKISRVEAEDLGVYYCFQGSHVPPTFGGGTKLEIK	7.35
STLM15 (antibody, human IgG2, V domains shown, Mouse hybridoma C2244 cloned into human IgG2 background (STLM15); also called C2244) VH: EVQLQESGPGLVKPSQSLSLTCTVTGFSITSDYAWNWIRQFPGSKLEWMGFISYSGDTSFNPSLKSRISVTRDTSKNQFFLQLNSVTTEDTATYYCASYDGYSFDYWGQGTTLTVSS VL: DIVLTQSPASLAISLGQRATISCRASKSVSTSGSSYMFWYQQKPGQPPKLLIYLASNLESGVPARFSGSGSGTDFTLNIHPVEEEDAAAYYCQHSREIPYTFGGGTKLEIK	10.96

Look up pKd: ST2M48 (antibody, V domains shown, Phage-derived Fab converted to IgG) VH: EVQLVQSGAEVKKPGESLKISCKGSGYSFTSYWIGWVRQMPGKGLEWMGIIYPGDSYTRYSPSFQGQVTISADKSISTAYLQWSSLKASDTAMYYCARLSGRFDYWGQGTLVTVSS VL: EIVLTQSPATLSLSPGERATLSCRASQSVRDALAWYQQKPGQAPRLLIYFASNRATGIPARFSGSGSGTDFTLTISSLEPEDFAVYYCQQFNTWPITFGQGTKVEIK 9.59
